The origin of these recorded values is patent US5455351A.

- System: HIV-13B
- METHOD_NOTES: Antiviral activity: inhibition of the cytopathic effect of HIV in MT4 cells
- Format: cell-based
- RUN_CONDITIONS: Human immunodeficiency virus 1; HIV-13B in MT4 cells; read-out: IC50 (concentration of compound that gives 50% inhibition of the cytopathic effect of HIV)
pIC50: −log10 of the molar value.

| STRUCTURE_SMILES | pIC50 |
| --- | --- |
| CC(C)(C)NC(=O)[C@@H]1CN(Cc2cncs2)CCN1C[C@@H](O)C[C@@H](Cc1ccccc1)C(=O)N[C@H]1c2ccccc2C[C@H]1O | 7.80 |
